Target: T1, human corticotrophin releasing hormone receptor type 2 (CRHR2) (human) (UniProt Q13324)
T1 sequence (looked up): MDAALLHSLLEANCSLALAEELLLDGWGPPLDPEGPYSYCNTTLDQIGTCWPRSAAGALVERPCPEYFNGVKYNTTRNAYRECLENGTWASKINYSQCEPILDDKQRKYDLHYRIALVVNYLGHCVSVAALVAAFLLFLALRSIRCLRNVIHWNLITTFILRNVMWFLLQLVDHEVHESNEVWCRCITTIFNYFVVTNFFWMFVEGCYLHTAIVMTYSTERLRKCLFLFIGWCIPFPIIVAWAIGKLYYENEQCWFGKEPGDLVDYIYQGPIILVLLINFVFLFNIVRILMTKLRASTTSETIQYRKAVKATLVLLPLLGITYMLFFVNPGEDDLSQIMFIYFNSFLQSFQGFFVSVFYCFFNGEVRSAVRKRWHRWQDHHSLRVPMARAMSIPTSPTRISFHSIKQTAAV
Experiment: radioligand competition against [125I]-anti-sauvagine-30, membranes of SK-N-MC cells with human CRHR2
Where no end group is shown, it is not given here.
quantity-name: pKI

I would be grateful if you could share the reported pKI for HPGSRIVLSLDVPIGLLQILLEQARARAAREQATTNARILARV-NH2 (also called h-SRP) [human stresscopin related peptide] . 7.57 -log10(M)

I would be grateful if you could share the reported pKI for FTLSLDVPTNIMNLLFNIAKAKNLRAQAAANAHLMAQI-NH2 [human urocortin III] . 6.49 -log10(M)

I would be grateful if you could share the reported pKI for DDPPLSIDLTFHLLRTLLELARTQSQRERAEQNRIIFDSV-NH2 [r-UCN1] . 8.51 -log10(M)
